assay target: ETS1 (Homo sapiens)
Sequence (P14921 whole entry, looked up): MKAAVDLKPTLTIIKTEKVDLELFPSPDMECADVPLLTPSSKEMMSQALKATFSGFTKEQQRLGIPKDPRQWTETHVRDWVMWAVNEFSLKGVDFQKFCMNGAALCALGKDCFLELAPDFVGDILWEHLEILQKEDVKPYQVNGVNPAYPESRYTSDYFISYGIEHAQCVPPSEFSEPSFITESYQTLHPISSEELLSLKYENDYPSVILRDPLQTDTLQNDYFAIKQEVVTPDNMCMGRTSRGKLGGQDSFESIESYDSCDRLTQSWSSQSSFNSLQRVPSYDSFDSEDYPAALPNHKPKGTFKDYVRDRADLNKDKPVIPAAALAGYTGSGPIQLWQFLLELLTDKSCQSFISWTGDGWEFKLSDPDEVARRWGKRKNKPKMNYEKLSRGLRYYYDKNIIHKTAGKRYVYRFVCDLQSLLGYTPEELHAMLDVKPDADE
assay: PBM
run parameters: Custom protein-binding microarray; buffer, salt, pH and temperature not given in the material
parameter: binding signal (log signal)
Numbers only, in log signal.

Example sequences with recorded binding signal:
INSERT INTO assay_data (input_sequence, measurement) VALUES
  ('CGGAAGTGTCGTAAACGTCGGATATCCAGTTCTTCTGTCTTGATTCGCTTGACGCTGCTG (double strand) [seq01_p28 G>A]', 8.64),
  ('CGGAAGTGTCGTAAACGTCGGATATCCGCTTCTTCTGTCTTGATTCGCTTGACGCTGCTG (double strand) [seq01_p29 G>C]', 10.1);

Query sequence follows.
# get_value(readout='binding signal', item= CGGAAGTGTCGTAAACGTCGGGTATCCGGTTCTTCTGTCTTGATTCGCTTGACGCTGCTG (double strand) [seq01_p22 A>G] )
10.5
